# tested system: Cathepsin B (Homo sapiens) (UniProt P07858)
# assay explanation: CTSB inhibitor potency, confirmatory, biochemical, dose-response (AID 820)
# details: purified cathepsin B enzyme activity, signal read-out
Results filed as inconclusive are left out. Active and inactive are the calls of the source. No rule for the calls is given here.
Outcome codes: active, inactive

1. Nc1cc(OC(=O)c2cccs2)nn1S(=O)(=O)c1ccccc1: active
2. CCOC(=O)c1sc(=NC(=O)c2ccc(S(=O)(=O)N3CC(C)OC(C)C3)cc2)n(C)c1C (stereo unspecified): inactive
3. CCn1nc(-c2cccs2)nc2c(=O)n(C)c(=O)nc1-2: active
4. COc1ccc(S(=O)(=O)n2nc(OC(=O)c3cccs3)cc2N)cc1: active
5. COc1ccc(C)c(Cn2c(-c3nonc3N)nc3ccccc32)c1: active
6. Nc1nc2n(n1)C1(CCCCC1)C1=C(CCCC1)N2: active

Values compiled from PubChem BioAssay AID820.
